molecular target: GST-CIB1 : F-scrambled peptide (Homo sapiens, UniProt Q99828); construct: made in house; host or cells: BL-21 plus RIL cells (E. coli); test: FP scrambled-peptide counter screen, 384-well format; assay type: binding; settings: F-scrambled peptide; read-out: 384-well COUNTERSCREEN IC50
This section presents compounds with their documented IC50 values.
quantity_name: IC50 (µM)

- CN(C)[C@@H]1CCN(c2cccc(Nc3nn4c(=O)c5ccccc5nc4s3)c2)C1.Cl: 14.1
- COC(=O)C12C(=O)C(C)(O)C(=O)C1(C)C(C)=CC1C34CCC(OC3=O)C(C)(CO)C4CCC12C (stereo not drawn): 26.4
- C=CCNc1oc(-c2ccc(-c3ccccc3)cc2)nc1C#N.O=C(O)C(F)(F)F: 7.1
- NS(=O)(=O)c1ccc(Cc2c(-c3cccc(-c4ccccc4F)c3)nn(-c3nc(C(=O)O)cs3)c2O)cc1.O=C(O)C(F)(F)F: 10
- Cc1ccc(S(=O)(=O)Nc2cnccc2C(=O)Nc2nc(-c3ccc(C)c(C)c3)cs2)cc1.O=C(O)C(F)(F)F: 31.6
- COc1ccccc1C(=O)c1no[n+]([O-])c1C(=O)c1ccccc1OC.O=C(O)C(F)(F)F: 8.9

----------
The entries below are paired with their reported Efficacy (%).
Molecular target: CIB1 and αIIb interaction (CIB1-GST : F-αIIb peptide) (Homo sapiens, UniProt Q99828)
Construct: made in house; host or cells: BL-21 plus RIL cells (E. coli)
Sequence (Q99828 1-191): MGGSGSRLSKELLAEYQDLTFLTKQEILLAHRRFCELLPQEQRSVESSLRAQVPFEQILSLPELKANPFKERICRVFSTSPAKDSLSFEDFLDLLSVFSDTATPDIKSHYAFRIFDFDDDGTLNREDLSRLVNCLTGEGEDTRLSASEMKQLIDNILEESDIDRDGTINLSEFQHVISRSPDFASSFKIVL
Assay: FP assay, 1536-well qHTS format (primary and confirmatory screen)
Type: binding
Details: qHTS primary screen hits, Table S2; negative = inhibition
quantity_name: Efficacy (%)

- Oc1c(Br)cc(Br)c2cccnc12: -41
- CCC(C)(C)n1nnnc1C(c1cc2ccc(OC)cc2[nH]c1=O)N1CCc2ccccc2C1.O=C(O)C(F)(F)F (stereo not shown): -29
- CC(C)NCC(O)c1cc(O)cc(O)c1.CC(C)NCC(O)c1cc(O)cc(O)c1.O=S(=O)(O)O (stereo not shown): -51
- Cc1c2c(=O)n(-c3ccccc3)[nH]c2cc(=O)n1Cc1ccco1.O=C(O)C(F)(F)F: -43

----------
biological target: CIB1 and αIIb interaction (CIB1-GST : F-αIIb peptide) (Homo sapiens); construct: made in house; host or cells: BL-21 plus RIL cells (E. coli); assay: FP assay, 1536-well qHTS format (primary and confirmatory screen); type: binding; conditions: qHTS primary screen hits, Table S2; negative = inhibition
quantity_name: Efficacy (%)

• Oc1cccc(C2=C3C=CC(=N3)C(c3cccc(O)c3)=C3C=CC(=N3)C(c3cccc(O)c3)=C3CCC(=N3)C(c3cccc(O)c3)=C3C=CC2=N3)c1 [NCGC00183015-01] = -29
• COCCCOc1ccnc(C[S+]([O-])c2nc3ccccc3[n-]2)c1C.[Na+] (stereo not shown) [NCGC00159518-05] = -54
• CC(C)N1CCc2c(sc(NC(=O)Cc3ccccc3)c2-c2nc3ccccc3s2)C1.O=C(O)C(F)(F)F [NCGC00184841-01] = -104
• CN(C)CCCNc1cc(O)c2ncccc2c1.O=C(O)C(F)(F)F [NCGC00183792-01] = -32
